Target: GlcNAc(a1-4)Gal(b1-4)GlcNAc(b1-3)Gal(b1-4)[Fuc(a1-3)]GlcNAc(b1-3)Gal(b1-4)[Fuc(a1-3)]GlcNAc
Experiment: glycan array binding signal (z-score within array); higher = stronger binding
Conditions: glycan notation: IUPAC condensed, linker removed
Shown is part of a subset that was picked to be rich in the strongest signals.
observation-type: glycan array binding signal (z-score)

>  <binder>
RbmA (Vibrio cholerae), A0A2H4NFB8 (protein) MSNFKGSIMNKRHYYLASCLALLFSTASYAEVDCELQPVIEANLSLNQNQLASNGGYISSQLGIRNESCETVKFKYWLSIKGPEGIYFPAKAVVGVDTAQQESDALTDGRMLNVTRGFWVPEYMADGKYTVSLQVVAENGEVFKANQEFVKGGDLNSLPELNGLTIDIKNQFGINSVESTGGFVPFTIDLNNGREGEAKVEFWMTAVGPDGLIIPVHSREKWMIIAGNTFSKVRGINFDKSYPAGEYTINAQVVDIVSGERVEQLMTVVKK

>  <result>
4.35

$$$$
